Target: HCV polymerase (NS5B570n-Con1) (Hepatitis C virus genotype 1b, UniProt Q9WMX2)
Construct: a 21 amino acid C-terminal deletion of full-length HCV polymerase
Test: HCV NS5B RNA polymerase activity (incorporation of radiolabeled nucleotide into acid insoluble RNA)
Quantity: IC50 (nM)
Entry rule: numbers only, all in nM.

Input line: What does the data say about its IC50? Entry: `O=c1ncn(Cc2ccc(Cl)cc2)c2cc(-c3ccc(OCc4ccncc4)cc3)sc12`
Output line: 49

Input line: Look up IC50: `Cc1cc(N)n2nc(-c3ccc(-c4cc5c(s4)c(=O)ncn5C[C@H]4CC[C@H](C)CC4)cn3)cc2n1`
Output line: 428

Input line: Suppose we examine the compound `CCCCOc1ccc(-c2cc3c(s2)c(=O)ncn3Cc2ccc(Cl)cc2)cc1Cl` ; what IC50 value has been reported?
Output line: 155

Input line: Item under review: `Cc1ccc(Cn2cnc(=O)c3sc(-c4ccc(-c5ccccc5)cc4)cc32)cc1` . Reported IC50?
Output line: 45

Input line: Which IC50 value belongs to `O=C(Nc1ccc(-c2cc3c(s2)c(=O)ncn3Cc2ccc(Cl)cc2)cc1Cl)c1ccccn1` ?
Output line: 2

Input line: Give its IC50 value. Item: CC(CCO)C(=O)Nc1ccc(-c2cc3c(s2)c(=O)ncn3Cc2ccc(Cl)cc2)cc1Cl (centres unmarked)
Output line: 517

Input line: Record request: IC50 value, item `O=c1ncn(Cc2ccc(Cl)cc2)c2cc(-c3ccc(OCc4ccc(F)cc4)cc3)sc12`
Output line: 13

Input line: Need IC50 of `Cc1cc(N)n2nc(-c3ccc(-c4cc5c(s4)c(=O)ncn5Cc4ccc(Cl)cc4)cn3)cc2n1` , thanks.
Output line: 19

Input line: Give the measured IC50 of `CC(=O)Nc1ccc(-c2cc3c(s2)c(=O)ncn3Cc2ccc(Cl)cc2)cc1` .
Output line: 586

Input line: # query: IC50 of entry `O=c1ncn(Cc2ccc(Cl)cc2)c2cc(-c3ccc(OCc4ccccn4)cc3)sc12`
Output line: 51

Input line: // returns reported IC50 for input `O=c1ncn(Cc2ccc(Cl)cc2)c2cc(-c3ccc(SCc4ccccn4)cc3)sc12`
Output line: 163

Input line: # input compound: `Cc1cc(N)nc(COc2ccc(-c3cc4c(s3)c(=O)ncn4Cc3ccc(Cl)cc3)cc2)n1` ; wanted: its IC50
Output line: 372

Input line: Item `O=c1ncn(Cc2ccc(Cl)cc2)c2cc(-c3ccc(OCc4ccccn4)c(Cl)c3)sc12` has what recorded IC50?
Output line: 18

Input line: Could you share which IC50 value was measured for `O=C(Nc1ccc(-c2cc3c(s2)c(=O)ncn3Cc2ccc(Cl)cc2)cc1)c1ccc(O)cn1` ?
Output line: 17

Input line: What value of IC50 has been reported for the following compound? `COc1cccc(C(=O)Nc2ccc(-c3cc4c(s3)c(=O)ncn4Cc3ccc(Cl)cc3)cc2Cl)c1`
Output line: 162

Input line: Give its IC50 value. Item: `O=C(Nc1ccc(-c2cc3c(s2)c(=O)ncn3Cc2ccc(Cl)cc2)cc1)N1CCCC1`
Output line: 76

Input line: Could you share which IC50 value was measured for `O=c1ncn(Cc2ccc(Cl)cc2)c2cc(-c3ccc(N4CCCC4)cc3)sc12` ?
Output line: 1610

Input line: What measured IC50 goes with `Nc1cc(C(=O)Nc2ccc(-c3cc4c(s3)c(=O)ncn4Cc3ccc(Cl)cc3)cc2)ccn1` ?
Output line: 29

Input line: Item under review: `Cc1ccc(Cn2cnc(=O)c3sc(-c4ccc(-c5cc6ncccn6n5)cc4)cc32)cc1` . Reported IC50?
Output line: 108

Input line: Tell me the measured IC50 of `Nc1nccc(-c2ccc(-c3cc4c(s3)c(=O)ncn4Cc3ccc(Cl)cc3)cc2)n1` , please.
Output line: 29

Input line: GET /values?readout=IC50&item= `O=c1ncn(Cc2ccc(Cl)cc2)c2cc(-c3ccc(SCc4ccncc4)cc3)sc12`
Output line: 167

Input line: Bench note: what IC50 did `COc1ccc(COc2ccc(-c3cc4c(s3)c(=O)ncn4Cc3ccc(Cl)cc3)cc2)cc1` show?
Output line: 32

Input line: Consider the compound `O=C(Nc1ccc(-c2cc3c(s2)c(=O)ncn3Cc2ccc(Cl)cc2)cc1)c1cc(F)ccc1F` and give its measured IC50.
Output line: 21

Input line: Look up IC50: `Cc1ccc(Cn2cnc(=O)c3sc(-c4ccc(CO)cc4)cc32)cc1`
Output line: 560

Input line: Find the recorded IC50 belonging to `Cc1ccc(Cn2cnc(=O)c3sc(-c4ccc(C(=O)O)cc4)cc32)cc1` and report it.
Output line: 535

Input line: Report IC50 for `O=c1ncn(Cc2ccc(Cl)cc2)c2cc(-c3ccc(SCc4ccccc4)cc3)sc12` please.
Output line: 104

Input line: Item under review: `Nc1nccc(C(=O)Nc2ccc(-c3cc4c(s3)c(=O)ncn4Cc3ccc(Cl)cc3)cc2)n1` . Reported IC50?
Output line: 26

Input line: For the compound `O=c1ncn(Cc2ccc(Cl)cc2)c2cc(-c3ccc(Oc4ccccc4)cc3)sc12` , what IC50 is on record?
Output line: 150

Input line: Any idea what IC50 was measured for `O=c1ncn(Cc2ccc(Cl)cc2)c2cc(-c3ccc(OCc4cnccn4)cc3)sc12` ?
Output line: 71

Input line: Sample `Cc1ccc(Cn2cnc(=O)c3sc(-c4ccccc4)cc32)c(F)c1` — what was its IC50?
Output line: 126

Input line: Dear colleague, I am looking for the recorded IC50 of the following compound: `Cc1ncoc1C(=O)Nc1ccc(-c2cc3c(s2)c(=O)ncn3Cc2ccc(Cl)cc2)cc1`
Output line: 77
